tested on: EKVX NSCLC; assay: NCI tumour cell line growth inhibition, 48 h
quantity: TGI

chemical_structure | quantity | result
C=C1C(=O)O[C@H]2[C@H]1[C@H](OC(=O)/C(C)=C\C)CC(=C)[C@@H]1[C@H](O)[C@H]3O[C@@]3(C)[C@@]12O | TGI | > 100 µM
COC(=O)NN(C(=O)OC)c1c(-c2ccccc2)nc(SC)n1N | TGI | > 100 µM
CCOC(=O)C1=C(C(C)=O)CSC(c2ccccc2)=N1 | TGI | > 100 µM

* * *

system: SW-620 colon; assay: NCI tumour cell line growth inhibition, 48 h
TGI by entry:
quantity: TGI

compound | quantity | result
CCCCCCCCCCCCOC(=S)NCCCC | TGI | 35.5 µM
CCCc1[nH]nc(CCC(=O)N(Cc2ccccc2)Cc2ccccc2)c1CC | TGI | > 100 µM
COc1ccc(CC(CO)NC(=O)OCc2ccccc2)cc1Oc1ccc(CC(CO)NC(=O)OCc2ccccc2)cc1 (stereo not drawn) | TGI | > 100 µM
O=C1C(c2c(O)[nH]c3ccc(S(=O)(=O)O)cc23)=Nc2ccccc21 | TGI | > 100 µM
N#Cc1nc(-c2cc([N+](=O)[O-])cc([N+](=O)[O-])c2)oc1N | TGI | > 10 µM
CCCCCn1c(=N)n(CC(O)COc2cccc(C)c2)c2ccccc21 (stereo not drawn) | TGI | 18.3 µM
Cc1nn(C(=O)Cc2ccccc2)c2c1C(c1ccccc1O)SC(N)=N2 (stereo not drawn) | TGI | > 100 µM
COC(=O)CCC(NC(=S)N/N=C(\C)c1nccs1)C(=O)OC (stereo not drawn) | TGI | > 100 µM

* * *

system: NCI-H23 lung; test: NCI tumour cell line growth inhibition, 48 h
TGI by entry:

chemical_structure | TGI
C/C(N=Nc1nc2ccccc2s1)=C1/C=CC=CN1O | > 100 µM
Cc1sc(C(=O)Nc2cc(C(=O)NCCCN(C)C)n(C)c2)cc1NC(=O)CCCN1C(=O)c2cccc3cccc(c23)C1=O | > 100 µM
N#Cc1c(-c2ccccc2)/c(=C\Nc2ccc(Cl)cc2)c(=O)n2c1nc1ccccc12 | > 100 µM
CCN(CC)S(=O)(=O)c1ccc(OC)c(Nc2ncc(-c3ccccc3)o2)c1 | > 25 µM
CC1=NOC(=O)/C1=C/c1ccccc1O | > 100 µM
COc1cc(/C=C/C(=O)O)ccc1C(=O)O/C=C/c1ccccc1 | > 100 µM

* * *

TGI by entry:
tested on: DLD-1 colon; assay: NCI tumour cell line growth inhibition, 48 h

compound | result_qualifier | TGI, µM
CC1=NOC(=O)/C1=C/c1ccccc1O | > | 100
CN(C(=O)C12C3C4C5C3C1(C(=O)O)C5C42)C(C)(C)C (stereo unspecified) | = | 55.2
C/C(=C\c1ccccc1)C(=O)CCN1CCOCC1 | = | 33.4
CC1CCCCc2nc3c(c(=O)n21)CCCC3 (stereo unspecified) | > | 100
COCOc1ccc(OC)cc1 | > | 100
CCN(CC)CCn1ccc(=O)c2cc3c(=O)ccn(CCN(CC)CC)c3c(C)c21 | = | 7.83

* * *

test system: U251 CNS; test: NCI tumour cell line growth inhibition, 48 h
TGI by entry:
quantity: TGI (µM)

compound | measured_target | quantity | result_qualifier | result
CCSC1=CC(=O)c2nc3ccccc3c3ccnc1c23 | U251 CNS | TGI | = | 14.5
COc1cc(Cl)cc(-c2nn(C(=O)NCCN3CCOCC3)cc2-c2ccncc2)c1 | U251 CNS | TGI | > | 100
C=C(Cl)/C(=C\Cl)CCC(Br)C(C)C (stereo not given) | U251 CNS | TGI | > | 100
COc1cc(OCc2ccc3oc(=O)c(-c4ccccc4)nc3c2)cc(OC)c1OC | U251 CNS | TGI | > | 100
Cc1c(C(=O)/C=C/c2csc3ccccc23)[n+](=O)c2ccccc2n1[O-] | U251 CNS | TGI | = | 3.17
